test system: HIV-1 infection of TZM-bl cells; test: HIV-1 infectivity enhancement assay, β-galactosidase luminescence; assay type: cell-based; conditions: 1.3 µM peptide; infection relative to EF-C (QCKIKQIINMWQ = 1)
ENDPOINT_LABEL: Rel-EFC

Some substances with recorded Rel-EFC:
> print(dat)
         substance  endpoint.label  observed
1          CKAKAQA         Rel-EFC      0,03
2  MDQMDQMDQMDQMDQ         Rel-EFC         0
3         KIKIKIQI         Rel-EFC       0,1
4          CKYKYQY         Rel-EFC      0,04
5          KVKGVGK         Rel-EFC      0,03

Form field Rel-EFC, entry CEIEIQI : 0,03

Quick note, Rel-EFC for FKFDKFKFDK landed at 0,05

Lookup result for HHHHKAKAKAKAYYYY ; measured Rel-EFC: 0,01

Entry CKIKQIINM , Rel-EFC reported as 0,5

In plain terms, NMWQKIKQII has a documented Rel-EFC of 0,03

In plain terms, KFKFKFQF has a documented Rel-EFC of 0,8

Record summary for HHHHEIEIEIEI : reported Rel-EFC = 0,03

// Rel-EFC lookup, substance = HHHHKAKAKAKAWWWW , result: 0,09
